Reference source for all entries: patent US20260069584A1

test description: Single ascending dose (SAD) study in healthy male volunteers: pharmacokinetics
Type: in vivo, human
measurement parameters: male, human, plasma, oral, 12 mg, 12 mg (N = 6), mean; read-out: AUC(0-last)

{"smiles structure": "Cc1ccc(C(=O)NNC(=O)c2c(C)cccc2Cl)cc1C#Cc1cnc2ccccc2c1", "AUC(0-t) (ng·h/mL)": 2640}

----------
test description: Single ascending dose (SAD) study in healthy male volunteers: pharmacokinetics
Format: in vivo, human
measurement parameters: male, human, plasma, oral; across dose range 6, 12, 24 mg; read-out: median time of maximum concentration (Tmax)
quantity name: Tmax

{"smiles structure": "Cc1ccc(C(=O)NNC(=O)c2c(C)cccc2Cl)cc1C#Cc1cnc2ccccc2c1", "value observed": "2.5 to 3 h"}
